Listed here: items and their measured IC50.
- target: Glucocorticoid receptor (Homo sapiens)
- Sequence (P04150 whole entry): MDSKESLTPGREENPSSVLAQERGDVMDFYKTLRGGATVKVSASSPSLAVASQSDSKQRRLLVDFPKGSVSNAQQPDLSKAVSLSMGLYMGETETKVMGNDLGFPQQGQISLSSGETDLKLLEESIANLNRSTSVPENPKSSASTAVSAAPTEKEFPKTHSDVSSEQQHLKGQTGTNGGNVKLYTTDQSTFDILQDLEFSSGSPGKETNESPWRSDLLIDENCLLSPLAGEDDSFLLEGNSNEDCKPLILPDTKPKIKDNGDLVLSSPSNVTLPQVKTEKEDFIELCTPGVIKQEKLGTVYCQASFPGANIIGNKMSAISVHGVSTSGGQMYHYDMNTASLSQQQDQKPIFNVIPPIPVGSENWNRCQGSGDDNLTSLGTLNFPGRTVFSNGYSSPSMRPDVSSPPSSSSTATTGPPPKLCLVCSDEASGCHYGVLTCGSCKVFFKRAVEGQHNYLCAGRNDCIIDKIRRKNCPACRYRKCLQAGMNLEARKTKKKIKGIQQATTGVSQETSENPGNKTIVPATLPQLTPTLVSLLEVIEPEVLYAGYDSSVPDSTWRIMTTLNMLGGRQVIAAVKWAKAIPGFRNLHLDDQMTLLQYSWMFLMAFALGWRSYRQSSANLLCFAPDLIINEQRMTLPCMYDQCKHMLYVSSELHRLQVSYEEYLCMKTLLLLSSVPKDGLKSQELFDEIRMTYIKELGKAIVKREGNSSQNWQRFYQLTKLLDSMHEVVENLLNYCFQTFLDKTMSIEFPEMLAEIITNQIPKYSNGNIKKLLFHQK
recorded.metric: IC50

• COc1ccccc1/C=C1\Oc2ccc(F)cc2-c2ccc3c(c21)C(C)=CC(C)(C)N3 = 0.09 µM
• CC1=CC(C)(C)Nc2ccc3c(c21)/C(=C/c1ncccc1C)Oc1ccc(F)cc1-3 = 0.188 µM
• CC1=CC(C)(C)Nc2ccc3c(c21)/C(=C/c1ccccc1)Oc1c(F)cccc1-3 = 0.25 µM
• CC1=CC(C)(C)Nc2ccc3c(c21)/C(=C/c1ccsc1)Oc1ccc(F)cc1-3 = 0.1 µM
• CC1=CC(C)(C)Nc2ccc3c(c21)/C(=C/c1ccncc1C)Oc1ccc(F)cc1-3 = 0.245 µM
• CC1=CC(C)(C)Nc2ccc3c(c21)/C(=C/c1ccco1)Oc1ccc(F)cc1-3 = 0.109 µM
• CC1=CC(C)(C)Nc2ccc3c(c21)/C(=C/c1ccccc1N(C)C)Oc1ccc(F)cc1-3 = 0.32 µM
• CC1=CC(C)(C)Nc2ccc3c(c21)/C(=C/c1ccccc1C)Oc1ccc(F)cc1-3 = 0.65 µM

Values from ChEMBL document CHEMBL1145087
